These measurements were taken from the supplement of paper PMC7411054.

# Tested on: A549-TUBA1B-RELA
# assay-comment: phenotypically active (imaging signature differs from DMSO and reproducible) at any of 0.3-9 uM (binary (1 = active, 0 = inactive)); higher = active
# setup-conditions: treatment time: 24 h
Documented phenotypically active across a set of molecules
measurement-type: phenotypically active

molecule="CCc1nn(CCCN2CCN(c3cccc(Cl)c3)CC2)c(=O)n1CCOc1ccccc1 [nefazodone]" measurement_target=A549-TUBA1B-RELA reported_measurement=0
molecule="S=C(S)N1CCCC1 [Pyrrolidinedithiocarbamate ammonium]" measurement_target=A549-TUBA1B-RELA reported_measurement=1
molecule=COc1ccc(C2(CNC(=O)c3ccc(NC(=O)c4ccco4)cc3)CCOCC2)cc1 measurement_target=A549-TUBA1B-RELA reported_measurement=0
molecule="COc1cc([C@@H]2c3cc4c(cc3[C@@H](O[C@@H]3O[C@@H]5CO[C@@H](c6cccs6)O[C@H]5[C@H](O)[C@H]3O)[C@H]3COC(=O)[C@H]23)OCO4)cc(OC)c1O [teniposide]" measurement_target=A549-TUBA1B-RELA reported_measurement=1
molecule="CNC1CCC2(C)C(=CCC3C2CCC24CN(C)C(C)C2CCC34)C1 (centres undefined) [Isoconessimine]" measurement_target=A549-TUBA1B-RELA reported_measurement=1
molecule="CC(C)(C#N)c1cc(Cn2cncn2)cc(C(C)(C)C#N)c1 [Anastrozole]" measurement_target=A549-TUBA1B-RELA reported_measurement=0
molecule=CCCCOc1c(C(=O)c2c(F)cc(C)cc2F)cnc2[nH]ncc12 measurement_target=A549-TUBA1B-RELA reported_measurement=1
molecule="CCCCOc1cc(C(=O)OCCN(CC)CC)ccc1N [oxybuprocaine]" measurement_target=A549-TUBA1B-RELA reported_measurement=0
molecule="CNCCCN1c2ccccc2CCc2ccccc21 [desipramine]" measurement_target=A549-TUBA1B-RELA reported_measurement=1

* * *

# Tested on: WPMY1-GM130-SQSTM1
# assay-comment: phenotypically active (imaging signature differs from DMSO and reproducible) at any of 0.3-9 uM (binary (1 = active, 0 = inactive)); higher = active
# setup-conditions: treatment time: 24 h
Where a name gives a salt, the structure may show the parent alone.
Possible outcomes: Y = active, N = inactive

molecule=C=C(C)[C@@H]1CC[C@]2(CO)CC[C@]3(C)[C@H](CC[C@@H]4[C@@]5(C)CC[C@H](O)C(C)(C)[C@@H]5CC[C@]43C)[C@@H]12 class_name=N
molecule="CCOC(=O)C(C)(C)Oc1ccc(Cl)cc1 [Clofibrate]" class_name=N
molecule=N=C(N)NC(=O)Cc1c(Cl)cccc1Cl class_name=N
molecule=CCC1=C[C@@H]2CN(C1)Cc1c([nH]c3ccccc13)[C@@](C(=O)OC)(c1cc3c(cc1OC)N(C)[C@H]1[C@@](O)(C(=O)OC)[C@H](OC(C)=O)[C@]4(CC)C=CCN5CC[C@]31[C@@H]54)C2 class_name=Y
molecule="COc1ccc2c3c([nH]c2c1)[C@H]1C[C@H]2[C@H](C[C@@H](O)[C@H](OC)[C@H]2C(=O)O)CN1CC3 [Reserpinic acid hydrochloride]" class_name=N
molecule=CCCOc1ccn2c(C(C)=O)cc(-c3ccccc3S(C)(=O)=O)c2c1 class_name=N
molecule="CO/N=C/C1=CCCN(C)C1 [Milameline hydrochloride]" class_name=N
